molecular target: Cbl-b (Homo sapiens, UniProt Q13191); construct: Cbl-b-HiBit KI Jurkat Cells were purchased from Promega; host or cells: Cbl-b-HiBiT knock-in Jurkat cells; assay: Cbl-b Degradation Method A (FACS, anti-Cbl-b antibody staining); format: cell-based; settings: Cbl-b-HiBit KI Jurkat Cells, incubated at least 20 hours; half maximal degradation; read-out: Cbl-b Degredation Method A IC50
Sequence (Q13191 whole entry): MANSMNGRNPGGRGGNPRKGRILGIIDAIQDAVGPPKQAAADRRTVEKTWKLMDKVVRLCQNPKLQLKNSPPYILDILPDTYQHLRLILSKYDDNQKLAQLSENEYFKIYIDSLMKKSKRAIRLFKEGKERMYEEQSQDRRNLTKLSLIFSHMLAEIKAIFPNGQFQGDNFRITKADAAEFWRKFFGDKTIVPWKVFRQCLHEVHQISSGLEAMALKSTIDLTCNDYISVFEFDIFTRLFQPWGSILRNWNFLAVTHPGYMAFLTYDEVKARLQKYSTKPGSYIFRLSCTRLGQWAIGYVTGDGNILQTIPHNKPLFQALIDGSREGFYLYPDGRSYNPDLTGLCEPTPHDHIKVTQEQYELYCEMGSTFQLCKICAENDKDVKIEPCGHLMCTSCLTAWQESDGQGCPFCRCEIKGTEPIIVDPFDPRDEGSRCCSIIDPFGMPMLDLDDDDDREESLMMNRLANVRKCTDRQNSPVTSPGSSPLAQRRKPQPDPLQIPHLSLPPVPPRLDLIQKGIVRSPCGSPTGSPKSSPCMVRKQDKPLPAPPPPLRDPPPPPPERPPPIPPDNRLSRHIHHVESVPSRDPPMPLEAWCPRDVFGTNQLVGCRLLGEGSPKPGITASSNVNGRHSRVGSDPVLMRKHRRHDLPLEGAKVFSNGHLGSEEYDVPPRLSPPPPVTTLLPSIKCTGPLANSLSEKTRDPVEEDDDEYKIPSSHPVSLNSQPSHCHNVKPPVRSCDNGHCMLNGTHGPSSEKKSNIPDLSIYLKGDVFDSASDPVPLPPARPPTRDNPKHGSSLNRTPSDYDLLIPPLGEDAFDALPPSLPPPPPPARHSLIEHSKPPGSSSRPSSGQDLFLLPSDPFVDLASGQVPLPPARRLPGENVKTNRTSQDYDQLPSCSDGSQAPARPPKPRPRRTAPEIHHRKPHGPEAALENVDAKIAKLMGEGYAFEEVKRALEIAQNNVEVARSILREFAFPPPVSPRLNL
assay endpoint: DC50

Field: example entries. Status: answers known.
C[C@H]1CN(Cc2cc3c(c(C(F)(F)F)c2)CN(c2cccc(C4(Cc5nncn5C)COC4)c2)C3=O)CCN1CC1CCC(OC2CCN(c3ccc4c(c3F)CN(C3CCC(=O)NC3=O)C4=O)CC2)CC1 (some centres unmarked)	< 0.005 µM
Cn1cnnc1CC1(c2cccc(N3Cc4c(cc(CN5CCC[C@@H](CN6CCC(CC7CCN(c8ccc9c(c8)C(=O)N(C8CCC(=O)NC8=O)C9=O)CC7)CC6)C5)cc4C(F)(F)F)C3=O)c2)COC1 (some centres unmarked)	0.005 to 0.05 µM
Cn1cnnc1CC1(c2cccc(N3Cc4c(cc(CN5CCC[C@@H](CN6CCN(C[C@H]7CC[C@H](OC8CCN(c9ccc%10c(c9F)CN(C9CCC(=O)NC9=O)C%10=O)CC8)CC7)CC6(C)C)C5)cc4C(F)(F)F)C3=O)c2)COC1 (some centres unmarked)	0.05 to 0.5 µM

Requested field: DC50. Item: Cn1cnnc1[C@]1(c2cccc(N3Cc4c(cc(CN5CCC[C@H](CN6CCN(C[C@H]7CC[C@@H](OC8CCN(c9ccc%10c(c9F)CN(C9CCC(=O)NC9=O)C%10=O)CC8)CC7)CC6)C5)cc4C(F)(F)F)C3=O)c2)C[C@@H](C)C1 (some centres unmarked)
< 0.005 µM

Request the reported DC50 associated with Cn1cnnc1CC1(c2cccc(N3Cc4c(cc(CN5CCC(CN6CCC(Oc7ccc8c(c7)C(=O)N(C7CCC(=O)NC7=O)C8=O)CC6)CC5)cc4C(F)(F)F)C3=O)c2)COC1 (centres unmarked)
> 0.5 µM

For the compound Cn1cnnc1CC1(c2cccc(N3Cc4c(cc(CN5CCC(CN6CC7(C6)CN(c6ccc8c(c6)C(=O)N(C6CCC(=O)NC6=O)C8=O)C7)CC5)cc4C(F)(F)F)C3=O)c2)COC1 (centres unmarked) , what DC50 is on record?
> 0.5 µM

Entry C[C@@H]1c2nc(N3CCC(O[C@H]4CC[C@H](CN5CCN(Cc6cc7c(c(C(F)(F)F)c6)CN(c6cccc(C8(Cc9nncn9C)CC(C#N)C8)c6)C7=O)C(C)(C)C5)CC4)CC3)ccc2C(=O)N1C1CCC(=O)NC1=O (single isomer, unassigned) [Example 307] has what DC50?
0.05 to 0.5 µM

Need DC50 of CC1c2nc(N3CCC(O[C@H]4CC[C@H](CN5CCN(Cc6cc7c(c(C(F)(F)F)c6)CN(c6cccc(C8(Cc9nncn9C)CC8)c6)C7=O)CC5)CC4)CC3)ccc2C(=O)N1C1CCC(=O)NC1=O (mixture of isomers) , thanks.
0.005 to 0.05 µM

For COc1c(N2CCC(F)(CN3CCC4(CC3)CN(c3cc5c(c(C(F)(F)F)c3)CN(c3cccc(C6(Cc7nncn7C)COC6)c3)C5=O)C4)CC2)ccc2c1CN(C1CCC(=O)NC1=O)C2=O (centres unmarked) , what is its reported DC50?
0.005 to 0.05 µM

Entry COc1c(N2CCC(O[C@H]3CC[C@H](CN4CCN(Cc5cc6c(c(C(F)(F)F)c5)CN(c5cccc([C@]7(Cc8nncn8C)C[C@@H](C#N)C7)c5)C6=O)CC4)CC3)CC2)ccc2c1CN(C1CCC(=O)NC1=O)C2=O (some centres unmarked) : reported DC50 = ?
< 0.005 µM

Which DC50 value belongs to Cn1cnnc1CC1(c2cccc(N3Cc4c(cc(CN5CCN(C[C@H]6CC[C@H](OC7CCN(c8ccc9c(n8)CN(C8CCC(=O)NC8=O)C9=O)CC7)CC6)CC5)cc4C(F)(F)F)C3=O)c2)COC1 (some centres unmarked) ?
0.005 to 0.05 µM

What value of DC50 has been recorded for this entry: Cn1cnnc1CC1(c2cccc(N3Cc4c(cc(CN5CCC[C@H](CN6CCC7(CC6)CCN(c6ccc8c(c6)C(=O)N(C6CCC(=O)NC6=O)C8=O)CC7)C5)cc4C(F)(F)F)C3=O)c2)COC1 (some centres unmarked)
> 0.5 µM

// query DC50 value for entry CC(C)n1c(=O)n(C2CCC(=O)NC2=O)c2cccc(N3CCC(O[C@H]4CC[C@H](CN5CCN(Cc6cc7c(c(C(F)(F)F)c6)CN(c6cccc([C@]8(Cc9nncn9C)C[C@@H](C#N)C8)c6)C7=O)CC[C@H]5C)CC4)CC3)c21 (some centres unmarked)
0.005 to 0.05 µM

Recorded DC50 of Cn1cnnc1CC1(c2cccc(N3Cc4c(cc(N5CC6(CCN(CC7CCN(c8ccc9c(c8F)CN(C8CCC(=O)NC8=O)C9=O)CC7)CC6)C5)cc4C(F)(F)F)C3=O)c2)COC1 (centres unmarked) , please.
< 0.005 µM

Please report the recorded DC50 for Cn1cnnc1CC1(c2cccc(N3Cc4c(cc(N5CC(CC6CN(c7ccc8c(c7)C(=O)N(C7CCC(=O)NC7=O)C8=O)C6)C5)cc4C(F)(F)F)C3=O)c2)COC1 (centres unmarked) .
0.005 to 0.05 µM

Entry C[C@H]1C[C@@H](CN2CCC(CC3CCN(c4ccc5c(c4)C(=O)N(C4CCC(=O)NC4=O)C5=O)CC3)CC2)CN(Cc2cc3c(c(C(F)(F)F)c2)CN(c2cccc(C4(Cc5nncn5C)COC4)c2)C3=O)C1 (some centres unmarked) : reported DC50 = ?
0.005 to 0.05 µM

Look up DC50: Cn1cnnc1CC1(c2cccc(NC(=O)c3cc(N4CC5(CCN(CC6CCN(c7ccc8c(c7)C(=O)N(C7CCC(=O)NC7=O)C8=O)CC6)CC5)C4)nc(C4CC4)n3)c2)COC1 (centres unmarked)
0.05 to 0.5 µM

---

Reported Dmax values for a set of compounds
biological target: Cbl-b (Homo sapiens); construct: Cbl-b-HiBit KI Jurkat Cells were purchased from Promega; host or cells: Cbl-b-HiBiT knock-in Jurkat cells; test: Cbl-b Degradation Method A (FACS, anti-Cbl-b antibody staining); format: cell-based; conditions: Jurkat, Cbl-b-HiBit KI Jurkat Cells, incubated at least 20 hours; maximum degradation observed; read-out: Cbl-b Degredation Method A Dmax (%)

C[C@H]1C[C@@H](CN2CCN(c3cccc4c3C(=O)N(C3CCC(=O)NC3=O)C4=O)CC2)CN(Cc2cc3c(c(C(F)(F)F)c2)CN(c2cccc(C4(Cc5nncn5C)COC4)c2)C3=O)C1 (stereo partly drawn)	< 35%
CC1CN(C[C@H]2CC[C@H](OC3CCN(c4ccc5c(n4)C(C)N(C4CCC(=O)NC4=O)C5=O)CC3)CC2)CCN1Cc1cc2c(c(C(F)(F)F)c1)CN(c1cccc([C@]3(Cc4nncn4C)C[C@@H](C#N)C3)c1)C2=O (stereo partly drawn)	35 to 70%
Cn1cnnc1CC1(c2cccc(N3Cc4c(cc(N5CC6(CCN(C[C@H]7CC[C@H](OC8CCN(c9ccc%10c(c9F)CN(C9CCC(=O)NC9=O)C%10=O)CC8)CC7)CC6)C5)cc4C(F)(F)F)C3=O)c2)COC1 (stereo partly drawn)	> 70%
Cc1cc(N2CCC(CN3CC4(C3)CN(C3=CC5C(=O)N(c6cccc([C@]7(Cc8nncn8C)C[C@@H](C#N)C7)c6)CC5C(C(F)(F)F)=C3)C4)CC2)c(F)c2c1C(=O)N(C1CCC(=O)NC1=O)C2 (stereo partly drawn)	35 to 70%
CC1c2nc(N3CCC(O[C@H]4CC[C@H](CN5CCN(Cc6cc7c(c(C(F)(F)F)c6)CN(c6cccc(C8(Cc9nncn9C)CCC8)c6)C7=O)CC5)CC4)CC3)ccc2C(=O)N1C1CCC(=O)NC1=O (mixture of isomers)	> 70%

Could you now consider this next compound?
Name the recorded Dmax for Cn1cnnc1CC1(c2cccc(N3Cc4c(cc(CN5CCN(C[C@H]6CC[C@H](OC7CCN(c8ccc9c(c8)C(=O)N(C8CCC(=O)NC8=O)C9=O)CC7)CC6)CC5)cc4C(F)(F)F)C3=O)c2)COC1 (stereo partly drawn) .
35 to 70%
